// reported pest or weed control at 10 µg/mL for each item listed
Test system: armyworm
Assay: bioactivity test against armyworm, airbrush spray
Type: in vivo
Conditions: 72 h, 10 mg/L; read-out: Insecticidal activity against armyworm (%)
Procedure: Compounds were dissolved in mixed solvent (acetone:methanol=1:1), and diluted to required concentration with water containing 0.1% of tween 80. Diamond back moth, armyworm, peach aphid and carmine spider mite were used as targets and the method of spraying by airbrush was used for determination of insecticidal biassays. The method of spraying by airbrush: The corn leaves were made into plates of 2 cm diameter by use of punch. […] Scores were conducted and mortalities were calculated after 72 h.

CCc1ncnc(NCCc2ccc(Oc3ccc(C(F)(F)F)cc3)cc2)c1Cl.Cl
44%
FC(F)c1ncnc(NCCc2ccc(Oc3ccc(Cl)cc3)cc2)c1Cl
44%

Quick note, pest or weed control at 10 µg/mL for CCc1ncnc(NC(C)c2ccc(Oc3ccc(C(F)(F)F)cn3)cc2)c1Cl (centres unmarked) [CK40, reference compound] landed at 0%

Quick note, pest or weed control at 10 µg/mL for FC(F)(F)c1ccc(Oc2ccc(CCNc3ncnc(Cl)c3Cl)cc2)nc1 [CK73, reference compound] landed at 0%

Quick note, pest or weed control at 10 µg/mL for FC(F)(F)c1ccc(Oc2ccc(CCNc3ncnc4ccccc34)cn2)cc1 [CK19, reference compound] landed at 7%

Quick note, pest or weed control at 10 µg/mL for FC(F)(F)c1ccc(Oc2ccc(CCNc3ncnc4ccccc34)cc2)nc1 [CK12, reference compound] landed at 0%

Quick note, pest or weed control at 10 µg/mL for CCc1ncnc(NCCc2ccc(Oc3ccc(C(F)(F)F)cc3)nc2)c1Cl landed at 65%

Quick note, pest or weed control at 10 µg/mL for CCc1ncnc(NCCc2ccc(Oc3ccc(Cl)cc3)cc2)c1Cl landed at 30%

Quick note, pest or weed control at 10 µg/mL for CCc1ncnc(NCCc2ccc(Oc3ccc(Cl)nn3)cc2)c1Cl landed at 60%

Quick note, pest or weed control at 10 µg/mL for Clc1ccc(Oc2ccc(CCNc3ncnc4ccccc34)cn2)cc1 [CK18, reference compound] landed at 14%

Quick note, pest or weed control at 10 µg/mL for CCc1ncnc(NC(C)c2ccc(Oc3ccc(C(F)(F)F)cc3)cc2)c1Cl (centres unmarked) [CK47, reference compound] landed at 0%

Quick note, pest or weed control at 10 µg/mL for CCc1ncnc(OCCc2ccc(Oc3ccccc3)cc2)c1Cl [CK13, reference compound] landed at 0%

Quick note, pest or weed control at 10 µg/mL for CCC(Nc1ncnc(C)c1Cl)c1ccc(Oc2ccc(C(F)(F)F)cn2)cc1 (centres unmarked) [CK41, reference compound] landed at 0%

Quick note, pest or weed control at 10 µg/mL for CC(Cl)c1ncnc(NCCc2ccc(Oc3ccc(C(F)(F)F)cc3)cc2)c1Cl (centres unmarked) [CK20, reference compound] landed at 0%

---

tested on: carmine spider mite; assay: bioactivity test against carmine spider mite, airbrush spray; format: in vivo; details: Tetranychus cinnabarinus, 72 h, 10 mg/L; contrastive test; read-out: Insecticidal activity against carmine spider mite (% )
// reported pest or weed control at 10 µg/mL for each item listed
State the answer as a number, implicitly in %.

Sample records with pest or weed control at 10 µg/mL:
Cc1ncnc(NCc2ccc(Oc3ccc(C(F)(F)F)cc3)cc2)c1Cl [CK53, reference compound]
12
Cc1ncnc(NC(C)c2ccc(Oc3ccc(C(F)(F)F)cc3)cc2)c1Cl (centres unmarked) [CK46, reference compound]
28
CCc1ncnc(NC(C)c2ccc(Oc3ncc(C(F)(F)F)cc3Cl)cc2)c1Cl (centres unmarked) [CK39, reference compound]
16
CCc1ncnc(NCCc2ccc(Oc3ccc(C(F)(F)F)cc3)cc2)c1Cl [II-347]
100
Cc1ncnc(NCc2ccc(Oc3ncc(C(F)(F)F)cc3Cl)cc2)c1Cl [CK32, reference compound]
0

Quick note, pest or weed control at 10 µg/mL for CCc1ncnc(NCCc2ccc(Oc3ccc(C(F)(F)F)cn3)cc2)c1Cl [Compound I-6757] landed at 97

Quick note, pest or weed control at 10 µg/mL for CCC(Nc1ncnc(C)c1Cl)c1ccc(OC(F)F)cc1 (centres unmarked) [diflumetorim, reference compound] landed at 73

Quick note, pest or weed control at 10 µg/mL for CC(Cl)c1ncnc(NCCc2ccc(Oc3ccc(C(F)(F)F)cn3)cc2)c1Cl (centres unmarked) [CK24, reference compound] landed at 85

---

tested on: wheat powdery mildew; assay: protectant activity in vivo against wheat powdery mildew; details: 6.25 mg/L; protectant activity
property label: control effect against wheat powdery mildew (%)
State the answer as a number, implicitly in %.

CCc1ncnc(NC(C)c2ccc(Oc3ccc(F)cc3)nc2)c1Cl (stereo not shown) [CK9, reference compound]
0
CCc1ncnc(NCCc2ccc(Oc3ccc(C(F)(F)F)cc3Cl)cc2)c1Cl
100
CC(F)c1ncnc(NCCc2ccc(Oc3ncc(C(F)(F)F)cc3Cl)cc2)c1Cl (stereo not shown) [CK2, reference compound]
0
CCc1ncnc(NCCc2ccc(Oc3ccc(C(F)(F)F)cn3)cc2)c1Cl
100
Cc1ncnc(NCCc2ccc(Oc3ccccc3)nc2)c1Cl
98
Cc1ncnc(NCCc2ccc(Oc3ccc(C#N)cc3F)cc2)c1Cl
100

Now consider a different compound.
control effect against wheat powdery mildew (%) for wheat powdery mildew with input CCc1ncnc(NCCc2ccc(Oc3ccc(C#N)cc3F)cc2)c1Cl equals 98

---

// reported pest or weed control at 10 µg/mL for each item listed
Tested on: carmine spider mite
Experiment: bioactivity test against carmine spider mite, airbrush spray
Type: in vivo
Conditions: Tetranychus cinnabarinus, 72 h, 10 mg/L; contrastive test; read-out: Insecticidal activity against carmine spider mite (% )
Experimental: Compounds were dissolved in mixed solvent (acetone:methanol=1:1), and diluted to required concentration with water containing 0.1% of tween 80. […] The method: Broadbean shoots with two true leaves in pot were taken, the healthy adults of carmine spider mite were inoculated to the leaves. The adults were counted and then sprayed with airbrush at the pressure of 0.7 kg/cm^2 and at dose of 0.5 ml. […] Scores were conducted and mortalities were calculated after 72 hrs.
State the answer as a number, implicitly in %.

Sample records with pest or weed control at 10 µg/mL:
CCc1ncnc(OCCc2ccc(Oc3ccccc3)cc2)c1Cl [CK13, reference compound]
0
Cc1ncnc(NC(C)c2ccc(Oc3ccc(C(F)(F)F)cn3)cc2)c1Cl (stereo not shown) [CK28, reference compound]
22

Quick note, pest or weed control at 10 µg/mL for CCc1ncnc(OC(CC)c2ccc(Oc3ccc(C(F)(F)F)cn3)cc2)c1Cl (stereo not shown) [CK15, reference compound] landed at 0

Quick note, pest or weed control at 10 µg/mL for FC(F)(F)c1ccc(Oc2ccc(CCNc3cc(Cl)ncn3)cc2)nc1 [CK69, reference compound] landed at 4

---

test system: corn rust; experiment: protectant activity in vivo against corn rust; conditions: Zea mays, 168 h, read-out: control effect against corn rust (%), 25 mg/L; protectant activity
Threshold check on pest or weed control at 25 µg/mL: at or above 40% gives True, strictly below gives False.

Some entries whose results are on file:
CCc1ncnc(OC(CC)c2ccc(Oc3ccc(C(F)(F)F)cn3)cc2)c1Cl (centres unmarked) [CK15, reference compound]
False
Cc1ncnc(NC(C)c2ccc(Oc3ccc(C(F)(F)F)cc3Cl)cc2)c1Cl (centres unmarked) [CK30, reference compound]
False
CC(Cl)c1ncnc(NCCc2ccc(Oc3ccc(C(F)(F)F)cn3)cc2)c1Cl (centres unmarked) [CK24, reference compound]
False

Please indicate if the recorded pest or weed control at 25 µg/mL for CCc1ncnc(NCc2ccc(Oc3ccc(C(F)(F)F)cc3Cl)cc2)c1Cl [CK48, reference compound] meets or exceeds 40%.
False

Please indicate if the recorded pest or weed control at 25 µg/mL for FC(F)(F)c1ccc(Oc2ccc(CCNc3ncnc4ccccc34)cc2)nc1 [CK12, reference compound] meets or exceeds 40%.
True

Please indicate if the recorded pest or weed control at 25 µg/mL for Cc1ncnc(NC(C)c2ccc(Oc3ccc(C(F)(F)F)cn3)cc2)c1Cl (centres unmarked) [CK28, reference compound] meets or exceeds 40%.
True

Please indicate if the recorded pest or weed control at 25 µg/mL for CCc1ncnc(OCCc2ccc(OCc3ccccc3)cc2)c1Cl [CK14, reference compound] meets or exceeds 40%.
False

---

// reported pest or weed control at 400 µg/mL for each item listed
tested on: cucumber downy mildew; assay: protectant activity in vivo against cucumber downy mildew; conditions: Cucumis sativus, 168 h, read-out: control effect against cucumber downy mildew (%), 400 mg/L; protectant activity
State the answer as a number, implicitly in %.

Sample records with pest or weed control at 400 µg/mL:
CC(Cl)c1ncnc(NCCc2ccc(Oc3nc(Cl)c(Cl)cc3Cl)cc2)c1Cl (stereo not shown) [CK63, reference compound]
70
Cc1ncnc(NC(C)c2ccc(Oc3ccc(C(F)(F)F)cn3)cc2)c1Cl (stereo not shown) [CK28, reference compound]
100
FC(F)(F)c1ccc(Oc2ccc(CCNc3ncnc(Cl)c3Cl)cc2)nc1 [CK73, reference compound]
98
CCc1ncnc(NC(=O)Cc2ccc(Oc3ccc(C(F)(F)F)cc3)cc2)c1Cl [CK59, reference compound]
80
CCc1ncnc(OC(CC)c2ccc(Oc3ccc(C(F)(F)F)cn3)cc2)c1Cl (stereo not shown) [CK15, reference compound]
95
FC(F)(F)c1ccc(Oc2ccc(CCNc3cc(Cl)ncn3)cc2)nc1 [CK69, reference compound]
100
Cc1ncnc(NC(=O)Cc2ccc(Oc3ncc(C(F)(F)F)cc3Cl)cc2)c1Cl [CK60, reference compound]
100
CCc1ncnc(NCCc2ccc(Oc3ccc(Cl)cc3)cc2)c1Cl
100

Quick note, pest or weed control at 400 µg/mL for FC(F)(F)c1cccnc1Oc1ccc(CCNc2cc(Cl)ncn2)cc1 [CK80, reference compound] landed at 85

Quick note, pest or weed control at 400 µg/mL for CCc1ncnc(NCCc2ccc(Oc3ccc(Cl)nn3)cc2)c1Cl landed at 100

Quick note, pest or weed control at 400 µg/mL for COc1cc(CCNc2ncnc(C(F)F)c2Cl)ccc1Oc1ccc(Cl)cc1 landed at 100

Quick note, pest or weed control at 400 µg/mL for Cc1nc(Cl)cc(NCCc2ccc(Oc3ccc(C(F)(F)F)cn3)cc2)n1 [CK67, reference compound] landed at 100

Quick note, pest or weed control at 400 µg/mL for CCc1ncnc(NC(=O)Cc2ccc(Oc3ccc(C(F)(F)F)cc3Cl)cc2)c1Cl [CK57, reference compound] landed at 50

Quick note, pest or weed control at 400 µg/mL for Cc1nc(Cl)cc(NCCc2ccc(Oc3ncc(C(F)(F)F)cc3Cl)cc2)n1 [CK68, reference compound] landed at 0

Quick note, pest or weed control at 400 µg/mL for CCc1ncnc(OCc2ccc(Oc3ccc(Cl)cc3)nc2)c1Cl [CK25, reference compound] landed at 100

Quick note, pest or weed control at 400 µg/mL for COC(=O)c1ccc(Oc2ccc(CCNc3nc(Cl)ncc3Cl)cc2)nc1 [CK78, reference compound] landed at 0
